Hello, the source for this data is patent US20030219427A1, in case you need it.

- Experimental System: TPL-2/COT kinase (FLAG-COT (30-397)) (Homo sapiens, UniProt P41279)
- Sequence (P41279 30-397): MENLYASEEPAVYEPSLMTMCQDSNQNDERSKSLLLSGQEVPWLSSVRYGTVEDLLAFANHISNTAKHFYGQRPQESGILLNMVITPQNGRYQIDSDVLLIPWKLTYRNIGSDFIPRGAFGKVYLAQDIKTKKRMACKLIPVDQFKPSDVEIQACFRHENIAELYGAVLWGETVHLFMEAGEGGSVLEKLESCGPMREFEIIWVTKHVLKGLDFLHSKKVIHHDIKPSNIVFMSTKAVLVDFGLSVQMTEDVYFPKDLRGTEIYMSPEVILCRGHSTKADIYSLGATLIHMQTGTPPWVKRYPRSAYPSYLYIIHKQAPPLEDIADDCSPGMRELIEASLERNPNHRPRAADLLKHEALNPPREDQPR
- Method: TPL-2/COT kinase assay and inhibitor screening (COT autophosphorylation and phosphorylation of GST-IκB-α)
- Details: retested at 100 μM, 10 μM and 1 μM; compared to DMSO vehicle control; read-out: IC50 for TPL-2 inhibition (inhibits TPL-2 kinase activity by 50%)
pIC50: −log10 of the molar value.
# Lookup of reported pIC50 keyed by entry
Quantity: pIC50

c1ccc(Oc2ccc3nccc(Nc4ccc(Sc5ccccc5)cc4)c3c2)cc1 4.30
CCOC(=O)c1cnc2c(c1Nc1ccc(Sc3ccccc3)cc1)C(=O)CCC2 5.00
